# assay notes: Luminescence data for pairs of compounds absorbing at the same wavelength and emitting at different wavelengths
# Assay type: physicochemical
measurement type: pSS (cm^−1)
Answer in cm^−1, number only, no unit symbol.

[
  {
    "compound": "CCCCCOc1cc2c3cc(OCCCCC)c(OCCCCC)cc3c3c(cc(OCCCCC)c4oc(-c5ccc(OC)cc5)nc43)c2cc1OCCCCC [Compound 45]",
    "number": 14000
  },
  {
    "compound": "CCCCCOc1cc2c3cc(OCCCCC)c(OCCCCC)cc3c3c(cc(OCCCCC)c4oc(-c5ccc6ccccc6c5)nc43)c2cc1OCCCCC [Compound 3]",
    "number": 16500
  },
  {
    "compound": "CCCCCOc1cc2c3cc(OCCCCC)c(OCCCCC)cc3c3c(cc(OCCCCC)c4oc(-c5ccc(N(C)C)cc5)nc43)c2cc1OCCCCC [Compound 22]",
    "number": 13150
  }
]

Please find the next compound below.
Enquiry: # lookup: pSS (cm^−1) of CCCCCOc1cc2c3cc(OCCCCC)c(OCCCCC)cc3c3c(cc(OCCCCC)c4oc(-c5ccc(C#N)cc5)nc43)c2cc1OCCCCC [Compound 12]
Return: 18800

* * *

# assay notes: Luminescent data (absorption, emission, quantum yield, brightness) in solvents
# Assay type: physicochemical
# condition notes: Octan-1-ol (ϵr 10.3, viscosity 7.36 cP)
Reported Brightness values for a set of compounds
Answer in M⁻¹ cm⁻¹, number only, no unit symbol.

// known answers, use as guide
[
  {
    "compound": "CCCCCOc1cc2c3cc(OCCCCC)c(OCCCCC)cc3c3c(cc(OCCCCC)c4oc(-c5cccc6ccccc56)nc43)c2cc1OCCCCC [Compound 4]",
    "Brightness / M⁻¹ cm⁻¹": 67
  },
  {
    "compound": "CCCCCOc1cc2c3cc(OCCCCC)c(OCCCCC)cc3c3c(cc(OCCCCC)c4oc(-c5ccc6ccccc6c5)nc43)c2cc1OCCCCC [Compound 3]",
    "Brightness / M⁻¹ cm⁻¹": 91
  },
  {
    "compound": "CCCCCOc1cc2c3cc(OCCCCC)c(OCCCCC)cc3c3c(cc(OCCCCC)c4oc(-c5ccccc5)nc43)c2cc1OCCCCC [Compound 2]",
    "Brightness / M⁻¹ cm⁻¹": 64
  }
]

Enquiry: # lookup: Brightness of CCCCCOc1cc2c3cc(OCCCCC)c(OCCCCC)cc3c3c(cc(OCCCCC)c4oc(CCCC)nc43)c2cc1OCCCCC [Compound 1]
Return: 36

Enquiry: # lookup: Brightness of CCCCCOc1cc2c3cc(OCCCCC)c(OCCCCC)cc3c3c(cc(OCCCCC)c4oc(-c5ccc6cc7ccccc7cc6c5)nc43)c2cc1OCCCCC [Compound 5]
Return: 50

* * *

Reported Absorption % Abs at 355 nm values for a set of molecules
# assay notes: Luminescence data for pairs of compounds absorbing at the same wavelength and emitting at different wavelengths
# Format: physicochemical
# condition notes: 355 nm
Answer in %, number only, no unit symbol.

// known answers, use as guide
[
  {
    "molecule": "CCCCCOc1cc2c3cc(OCCCCC)c(OCCCCC)cc3c3c(cc(OCCCCC)c4oc(-c5ccc(OC)cc5)nc43)c2cc1OCCCCC [Compound 45]",
    "Absorption % Abs at 355 nm, %": 22
  },
  {
    "molecule": "CCCCCOc1cc2c3cc(OCCCCC)c(OCCCCC)cc3c3c(cc(OCCCCC)c4oc(-c5ccc(N(C)C)cc5)nc43)c2cc1OCCCCC [Compound 22]",
    "Absorption % Abs at 355 nm, %": 54
  },
  {
    "molecule": "CCCCCOc1cc2c3cc(OCCCCC)c(OCCCCC)cc3c3c(cc(OCCCCC)c4oc(-c5ccc(C#N)cc5)nc43)c2cc1OCCCCC [Compound 12]",
    "Absorption % Abs at 355 nm, %": 12
  }
]

Please find the next molecule below.
Enquiry: # lookup: Absorption % Abs at 355 nm of CCCCCOc1cc2c3cc(OCCCCC)c(OCCCCC)cc3c3c(cc(OCCCCC)c4oc(-c5ccc6ccccc6c5)nc43)c2cc1OCCCCC [Compound 3]
Return: 17

* * *

# assay notes: Luminescent data (absorption, emission, quantum yield, brightness) in solvents
# Format: physicochemical
# condition notes: Ethyl acetate (ϵr 6.0, viscosity 0.45 cP)
Friendly reminder: Φ below 0.5 is 1, at or above is -1.

Enquiry: State whether 0.5 exceeds Φ recorded for `CCCCCOc1cc2c3cc(OCCCCC)c(OCCCCC)cc3c3c(cc(OCCCCC)c4oc(-c5ccc6ccccc6c5)nc43)c2cc1OCCCCC` .
Return: -1

Enquiry: State whether 0.5 exceeds Φ recorded for `CCCCCOc1cc2c3cc(OCCCCC)c(OCCCCC)cc3c3c(cc(OCCCCC)c4oc(-c5ccccc5)nc43)c2cc1OCCCCC` .
Return: 1

Enquiry: State whether 0.5 exceeds Φ recorded for `CCCCCOc1cc2c3cc(OCCCCC)c(OCCCCC)cc3c3c(cc(OCCCCC)c4oc(-c5cccc6ccccc56)nc43)c2cc1OCCCCC` .
Return: 1

Enquiry: State whether 0.5 exceeds Φ recorded for `CCCCCOc1cc2c3cc(OCCCCC)c(OCCCCC)cc3c3c(cc(OCCCCC)c4oc(CCCC)nc43)c2cc1OCCCCC` .
Return: 1

* * *

# assay notes: Luminescent data (absorption, emission, quantum yield, brightness) in solvents
# Assay type: physicochemical
# condition notes: Ethyl acetate (ϵr 6.0, viscosity 0.45 cP)
Reported pSS values for a set of compounds
Answer in cm^−1, number only, no unit symbol.

// known answers, use as guide
[
  {
    "compound": "CCCCCOc1cc2c3cc(OCCCCC)c(OCCCCC)cc3c3c(cc(OCCCCC)c4oc(-c5cccc6ccccc56)nc43)c2cc1OCCCCC [Compound 4]",
    "measurement type": "pSS",
    "number": 16800
  },
  {
    "compound": "CCCCCOc1cc2c3cc(OCCCCC)c(OCCCCC)cc3c3c(cc(OCCCCC)c4oc(-c5c6ccccc6cc6ccccc56)nc43)c2cc1OCCCCC [Compound 6]",
    "measurement type": "pSS",
    "number": 22700
  },
  {
    "compound": "CCCCCOc1cc2c3cc(OCCCCC)c(OCCCCC)cc3c3c(cc(OCCCCC)c4oc(CCCC)nc43)c2cc1OCCCCC [Compound 1]",
    "measurement type": "pSS",
    "number": 8300
  }
]

Enquiry: # lookup: pSS of CCCCCOc1cc2c3cc(OCCCCC)c(OCCCCC)cc3c3c(cc(OCCCCC)c4oc(-c5ccc6cc7ccccc7cc6c5)nc43)c2cc1OCCCCC [Compound 5]
Return: 18100

Enquiry: # lookup: pSS of CCCCCOc1cc2c3cc(OCCCCC)c(OCCCCC)cc3c3c(cc(OCCCCC)c4oc(-c5ccccc5)nc43)c2cc1OCCCCC [Compound 2]
Return: 15600

Enquiry: # lookup: pSS of CCCCCOc1cc2c3cc(OCCCCC)c(OCCCCC)cc3c3c(cc(OCCCCC)c4oc(-c5ccc6ccccc6c5)nc43)c2cc1OCCCCC [Compound 3]
Return: 16500

* * *

# assay notes: Luminescence data for pairs of compounds absorbing at the same wavelength and emitting at different wavelengths
# Type: physicochemical
# condition notes: at 355 nm; solvent not given
measurement type: ε × 10^3 (M^−1 cm^−1) at 355 nm

[
  {
    "compound": "CCCCCOc1cc2c3cc(OCCCCC)c(OCCCCC)cc3c3c(cc(OCCCCC)c4oc(-c5ccc(OC)cc5)nc43)c2cc1OCCCCC [Compound 45]",
    "ε × 10^3 (M^−1 cm^−1) at 355 nm": "21 × 10^3 M^−1 cm^−1"
  }
]

Enquiry: # lookup: ε × 10^3 (M^−1 cm^−1) at 355 nm of CCCCCOc1cc2c3cc(OCCCCC)c(OCCCCC)cc3c3c(cc(OCCCCC)c4oc(-c5ccc(C#N)cc5)nc43)c2cc1OCCCCC [Compound 12]
Return: 13 × 10^3 M^−1 cm^−1

Enquiry: # lookup: ε × 10^3 (M^−1 cm^−1) at 355 nm of CCCCCOc1cc2c3cc(OCCCCC)c(OCCCCC)cc3c3c(cc(OCCCCC)c4oc(-c5ccc6ccccc6c5)nc43)c2cc1OCCCCC [Compound 3]
Return: 29 × 10^3 M^−1 cm^−1

Enquiry: # lookup: ε × 10^3 (M^−1 cm^−1) at 355 nm of CCCCCOc1cc2c3cc(OCCCCC)c(OCCCCC)cc3c3c(cc(OCCCCC)c4oc(-c5ccc(N(C)C)cc5)nc43)c2cc1OCCCCC [Compound 22]
Return: 39 × 10^3 M^−1 cm^−1
